settings: in 1,4-dioxane, 315.65 K
MEASURED_PARAMETER: solubility (mole fraction)
API note: the answer field is a bare number with no unit suffix.

// solubility (mole fraction) value for `Nc1nnc[nH]1` : 0.0103

* * *

details: in NMP, 290.65 K
MEASURED_PARAMETER: solubility (mole fraction)

// sample `Nc1nnc[nH]1` , its solubility (mole fraction) was 0.166

* * *

details: in ethyl acetate, 303.15 K
MEASURED_PARAMETER: solubility (mole fraction)
Reply with just the number.

solubility (mole fraction) in this record for `Nc1nnc[nH]1` : 0.00345

* * *

conditions: in ethyl acetate, 290.65 K
MEASURED_PARAMETER: solubility (mole fraction)
API doc: respond with a numeric literal and nothing else, no unit.

Measured solubility (mole fraction) of `Nc1nnc[nH]1` : 0.00213

* * *

settings: in isopropanol, 295.65 K
MEASURED_PARAMETER: solubility (mole fraction)
// return a plain number; no unit text

// recorded solubility (mole fraction) for `Nc1nnc[nH]1` : 0.0111

* * *

details: in acetonitrile, 310.65 K
MEASURED_PARAMETER: solubility (mole fraction)
Answer with a bare number; do not write a unit.

Just so you know, measured solubility (mole fraction) for `Nc1nnc[nH]1` came out at 0.00453

* * *

conditions: in acetonitrile, 318.15 K
MEASURED_PARAMETER: solubility (mole fraction)
Please reply with the number alone, leaving off any unit.

Note to self: solubility (mole fraction) recorded for `Nc1nnc[nH]1` was 0.00698

* * *

conditions: in n-propanol, 285.65 K
MEASURED_PARAMETER: solubility (mole fraction)
Output: the number by itself.

The measured solubility (mole fraction) associated with `Nc1nnc[nH]1` reads 0.007

* * *

conditions: in ethanol, 305.65 K
MEASURED_PARAMETER: solubility (mole fraction)
I'd appreciate a reply containing only the number, no unit.

Measured solubility (mole fraction) of `Nc1nnc[nH]1` : 0.0338

* * *

settings: in methanol, 288.15 K
MEASURED_PARAMETER: solubility (mole fraction)
Number only, no unit.

The compound listed as `Nc1nnc[nH]1` has a reported solubility (mole fraction) of 0.0353

* * *

settings: in methanol, 295.65 K
MEASURED_PARAMETER: solubility (mole fraction)
Please give the numeric answer without any surrounding text.

Kindly note the recorded solubility (mole fraction) for `Nc1nnc[nH]1` , which is 0.0437

* * *

settings: in acetone, 290.65 K
MEASURED_PARAMETER: solubility (mole fraction)
Simply state the number, no unit and no words.

Entry `Nc1nnc[nH]1` , solubility (mole fraction) reported as 0.00617

* * *

conditions: in ethyl acetate, 313.15 K
MEASURED_PARAMETER: solubility (mole fraction)
Hey, just send me the number, nothing else.

Per the record, `Nc1nnc[nH]1` has solubility (mole fraction) of 0.00503

* * *

conditions: in acetone, 293.15 K
MEASURED_PARAMETER: solubility (mole fraction)
Please reply with the number alone, leaving off any unit.

Just so you know, measured solubility (mole fraction) for `Nc1nnc[nH]1` came out at 0.00672

* * *

details: in n-propanol, 293.15 K
MEASURED_PARAMETER: solubility (mole fraction)
Number, no unit, nothing else.

solubility (mole fraction) in this record for `Nc1nnc[nH]1` : 0.0116

* * *

conditions: in 2-butanone, 300.65 K
MEASURED_PARAMETER: solubility (mole fraction)
The response must contain the number and no unit.

For this molecule ( `Nc1nnc[nH]1` ), measured solubility (mole fraction) is 0.00386

* * *

details: in 1,4-dioxane, 305.65 K
MEASURED_PARAMETER: solubility (mole fraction)
Output spec: single numeric token, no unit.

Per the record, `Nc1nnc[nH]1` has solubility (mole fraction) of 0.00708

* * *

conditions: in 2-butanone, 285.65 K
MEASURED_PARAMETER: solubility (mole fraction)
Write the value as a bare number.

Just so you know, measured solubility (mole fraction) for `Nc1nnc[nH]1` came out at 0.00191

* * *

conditions: in isopropanol, 310.65 K
MEASURED_PARAMETER: solubility (mole fraction)

For reference, reported solubility (mole fraction) for `Nc1nnc[nH]1` stands at 0.0304

* * *

details: in NMP, 318.15 K
MEASURED_PARAMETER: solubility (mole fraction)
Response field accepts a number only; no unit should be typed.

Documented solubility (mole fraction) of `Nc1nnc[nH]1` : 0.267

* * *

conditions: in isopropanol, 300.65 K
MEASURED_PARAMETER: solubility (mole fraction)
Just the number, please, no unit after it.

compound `Nc1nnc[nH]1` , solubility (mole fraction) observed: 0.0161

* * *

details: in NMP, 293.15 K
MEASURED_PARAMETER: solubility (mole fraction)
Answer using only a numeral; do not append any unit.

`Nc1nnc[nH]1` has a reported solubility (mole fraction) of 0.173

* * *

settings: in n-propanol, 295.65 K
MEASURED_PARAMETER: solubility (mole fraction)
Please reply with the number alone, leaving off any unit.

solubility (mole fraction) reading for `Nc1nnc[nH]1` : 0.0135

* * *

settings: in ethyl acetate, 315.65 K
MEASURED_PARAMETER: solubility (mole fraction)
Field format: numeric only.

solubility (mole fraction) reported for this compound `Nc1nnc[nH]1` : 0.00549

* * *

conditions: in NMP, 298.15 K
MEASURED_PARAMETER: solubility (mole fraction)
Reply briefly: the number, and no unit.

Record `Nc1nnc[nH]1` . Reported solubility (mole fraction): 0.189

* * *

conditions: in n-propanol, 313.15 K
MEASURED_PARAMETER: solubility (mole fraction)
No unit in the answer, only the number.

Noted for `Nc1nnc[nH]1` : its solubility (mole fraction) reads 0.0388

* * *

conditions: in NMP, 310.65 K
MEASURED_PARAMETER: solubility (mole fraction)

Short answer for `Nc1nnc[nH]1` : solubility (mole fraction) was 0.234

* * *

details: in 1,4-dioxane, 310.65 K
MEASURED_PARAMETER: solubility (mole fraction)

Per the records, this compound ( `Nc1nnc[nH]1` ) has solubility (mole fraction) equal to 0.00865

* * *

conditions: in methanol, 315.65 K
MEASURED_PARAMETER: solubility (mole fraction)
A bare number is all that is needed in reply.

Kindly note the recorded solubility (mole fraction) for `Nc1nnc[nH]1` , which is 0.0745

* * *

conditions: in methanol, 293.15 K
MEASURED_PARAMETER: solubility (mole fraction)
Output: the number by itself.

Measured solubility (mole fraction) of `Nc1nnc[nH]1` : 0.0408

* * *

settings: in n-propanol, 310.65 K
MEASURED_PARAMETER: solubility (mole fraction)
Lab note: record just the number, no unit beside it.

`Nc1nnc[nH]1` yielded solubility (mole fraction) of 0.0339

* * *

details: in 1,4-dioxane, 295.65 K
MEASURED_PARAMETER: solubility (mole fraction)
# respond with the number and nothing more

get_value(item= `Nc1nnc[nH]1` , readout=solubility (mole fraction)) returns 0.00449

* * *

details: in methanol, 303.15 K
MEASURED_PARAMETER: solubility (mole fraction)

Lookup result for `Nc1nnc[nH]1` ; measured solubility (mole fraction): 0.0537

* * *

conditions: in ethanol, 298.15 K
MEASURED_PARAMETER: solubility (mole fraction)
Respond using a number only.

Input `Nc1nnc[nH]1` . Output solubility (mole fraction): 0.0239

* * *

conditions: in methanol, 308.15 K
MEASURED_PARAMETER: solubility (mole fraction)
Returns: the value as a bare number; no unit string appended.

Documented solubility (mole fraction) of `Nc1nnc[nH]1` : 0.0613

* * *

details: in 1,4-dioxane, 308.15 K
MEASURED_PARAMETER: solubility (mole fraction)
I'd appreciate a reply containing only the number, no unit.

Summary for this compound, `Nc1nnc[nH]1` : solubility (mole fraction) is 0.00785

* * *

details: in ethanol, 308.15 K
MEASURED_PARAMETER: solubility (mole fraction)
Returns: the value as a bare number; no unit string appended.

Briefly, solubility (mole fraction) measured for `Nc1nnc[nH]1` : 0.0378

* * *

settings: in isopropanol, 288.15 K
MEASURED_PARAMETER: solubility (mole fraction)
Number, no unit, nothing else.

compound `Nc1nnc[nH]1` , solubility (mole fraction) observed: 0.00634

* * *

conditions: in methanol, 285.65 K
MEASURED_PARAMETER: solubility (mole fraction)

Lookup result for `Nc1nnc[nH]1` ; measured solubility (mole fraction): 0.0329

* * *

details: in acetone, 318.15 K
MEASURED_PARAMETER: solubility (mole fraction)
Just the number.

Sample `Nc1nnc[nH]1` ; solubility (mole fraction) observed: 0.0152

* * *

details: in isopropanol, 290.65 K
MEASURED_PARAMETER: solubility (mole fraction)
Reply with just the number.

So, `Nc1nnc[nH]1` ? Its solubility (mole fraction) was 0.00755

* * *

details: in acetonitrile, 300.65 K
MEASURED_PARAMETER: solubility (mole fraction)
// keep it numeric: no unit symbol after the value

Reported solubility (mole fraction) ( `Nc1nnc[nH]1` ) = 0.00224
